// values below are IC50; system is SARS-CoV-2
Answer format: numeric, nM implied, no suffix.

stdin: Quick check: IC50 of `Cn1c(C#N)ccc1-c1ccc2c(c1)C(C)(C)OC(=S)N2` ?
stdout: 1130

stdin: Quick check: IC50 of `CC(C)(C)c1cc(/C=C(\C#N)C(N)=S)cc(C(C)(C)C)c1O` ?
stdout: 200

stdin: Quick check: IC50 of `C[CH2][Hg][S]c1ccccc1C(=O)[O-].[Na+]` ?
stdout: 1770

stdin: Quick check: IC50 of `CCOC(=O)c1ncc2[nH]c3ccc(OCc4ccccc4)cc3c2c1COC.Cl` ?
stdout: 1280

stdin: Quick check: IC50 of `CNS(=O)(=O)Nc1nccc(Cc2c(C)c3ccc(Oc4ncccn4)cc3oc2=O)c1F` ?
stdout: 5360

stdin: Quick check: IC50 of `O=C(/C=C/c1ccc2ccccc2n1)c1ccncc1` ?
stdout: 7030

stdin: Quick check: IC50 of `Cc1nn(C)c2nc(NNC(=O)Nc3cc(Cl)nc(Cl)c3)cc(C(C)C)c12` ?
stdout: 3660

stdin: Quick check: IC50 of `Cn1cc(-c2ccc3c(c2)CCN3C(=O)Cc2cccc(C(F)(F)F)c2)c2c(N)ncnc21` ?
stdout: 200

---

System: SARS-CoV-2
Conditions: read-out: IC50: concentration of 50% inhibition of virus infection; Table 5, further results of Examples 1 and 2; […]
Measure: IC50

stdin: Quick check: IC50 of `Cc1nn(C)c2nc(NNC(=O)Nc3cc(Cl)nc(Cl)c3)cc(C(C)C)c12` ?
stdout: 5970 nM

stdin: Quick check: IC50 of `FC(F)(F)Oc1ccc2nc(-c3ccc(OCCOCCOc4ccc(-c5nc6ccc(OC(F)(F)F)cc6[nH]5)nc4)cn3)[nH]c2c1` ?
stdout: 190 nM

stdin: Quick check: IC50 of `Cc1cccc2c1CC[C@H](CN1CCC(c3c(Cl)cccc3Cl)CC1)C[C@@H]2O` ?
stdout: 770 nM

stdin: Quick check: IC50 of `CC(C)(C)c1cc(/C=C(\C#N)C(N)=S)cc(C(C)(C)C)c1O` ?
stdout: 200 nM

stdin: Quick check: IC50 of `CCOC(=O)c1ncc2[nH]c3ccc(OCc4ccccc4)cc3c2c1COC.Cl` ?
stdout: 1340 nM

stdin: Quick check: IC50 of `Cn1cc(-c2ccc3c(c2)CCN3C(=O)Cc2cccc(C(F)(F)F)c2)c2c(N)ncnc21` ?
stdout: 250 nM

stdin: Quick check: IC50 of `CCS(=O)(=O)N(Cc1cccnc1)c1cccc(-c2ccc(C#N)cc2)c1` ?
stdout: 17000 nM

stdin: Quick check: IC50 of `C/C(=N\NC(=S)N1CCC1)c1ccccn1` ?
stdout: < 20 nM

stdin: Quick check: IC50 of NC(=NC1C2CC3CC(C2)CC1C3)Nc1ccc(I)cc1 (stereo not drawn) ?
stdout: 5960 nM

---

Tested on: SARS-CoV-2
Conditions: 10 µM
Give measured % Inh. (% Inhibition of SARS-CoV-2) for each item. Keep answers brief.
Answer format: numeric, % implied, no suffix.

stdin: Quick check: % Inh. (% Inhibition of SARS-CoV-2) of `COc1cc(Br)c(S(=O)(=O)Nc2ccc(Cl)c(O[C@@H]3CCN(C)C3)c2)cc1OC` ?
stdout: 101.1

stdin: Quick check: % Inh. (% Inhibition of SARS-CoV-2) of `CC(C)(Cc1c[nH]c2ccc(Cl)cc12)NCCOc1ccccc1OCC1CC1` ?
stdout: 103.3

stdin: Quick check: % Inh. (% Inhibition of SARS-CoV-2) of `Nc1nccc(-c2c(-c3ccc(F)cc3)ncn2C2CCCCC2)n1` ?
stdout: 111.6

stdin: Quick check: % Inh. (% Inhibition of SARS-CoV-2) of `CC(C)NC(=O)c1ccc(C#Cc2ccncc2)cn1` ?
stdout: 74.9

stdin: Quick check: % Inh. (% Inhibition of SARS-CoV-2) of `O=C(NNc1nc2cc(F)ccc2n2cccc12)c1cnccn1` ?
stdout: 108.7

stdin: Quick check: % Inh. (% Inhibition of SARS-CoV-2) of `Cc1cc(-c2ccc(CC(=O)Nc3ccc(-c4cccnc4)cc3)cc2)ccn1` ?
stdout: 82.3

stdin: Quick check: % Inh. (% Inhibition of SARS-CoV-2) of `CC(C)(C)c1cc(/C=C(\C#N)C(N)=S)cc(C(C)(C)C)c1O` ?
stdout: 104.2

stdin: Quick check: % Inh. (% Inhibition of SARS-CoV-2) of CC(=O)O[C@H]1C[C@H](O[C@H]2[C@@H](O)C[C@H](O[C@H]3[C@@H](O)C[C@H](O[C@H]4CC[C@@]5(C)[C@H](CC[C@@H]6[C@@H]5C[C@@H](O)[C@]5(C)[C@@H](C7=CC(=O)OC7)CC[C@]65O)C4)O[C@@H]3C)O[C@@H]2C)O[C@H](C)[C@H]1O[C@@H]1O[C@H](CO)[C@@H](O)[C@H](O)[C@H]1O [LANATOSIDE C] ?
stdout: 63.7

stdin: Quick check: % Inh. (% Inhibition of SARS-CoV-2) of `Cc1ccc(NC(=O)C(C)C)cc1C1CCN(Cc2ccc(Oc3ccc(F)c(F)c3)cc2)CC1` ?
stdout: 91.4

stdin: Quick check: % Inh. (% Inhibition of SARS-CoV-2) of `Cc1ccc2cc(-c3c(C)ccc(C(=O)c4c(-c5ccccc5)n(C)n(-c5ccccc5)c4=O)c3N)ccc2n1` ?
stdout: 127.9

stdin: Quick check: % Inh. (% Inhibition of SARS-CoV-2) of `O=C(Nc1ccccc1)N1CCC(Cc2cnc3ccccc3c2)CC1` ?
stdout: 85.2

stdin: Quick check: % Inh. (% Inhibition of SARS-CoV-2) of O=[N+]([O-])c1ccccc1S(=O)(=O)NCC1CCC(CNC[C@H]2CCc3ccccc3C2)CC1 (stereo partly drawn) ?
stdout: 92.7

stdin: Quick check: % Inh. (% Inhibition of SARS-CoV-2) of `COc1ccc(S(=O)(=O)N(CCO)c2ccccc2CN(C)C/C=C/c2ccc(Cl)cc2)cc1` ?
stdout: 88.4

stdin: Quick check: % Inh. (% Inhibition of SARS-CoV-2) of `Cc1nc(NC(=O)N2CCC[C@H]2C(N)=O)sc1-c1csc(C(C)(C)C)n1` ?
stdout: 54.4

stdin: Quick check: % Inh. (% Inhibition of SARS-CoV-2) of `CC(C)[C@H]1c2ccc(F)cc2CC[C@@]1(CCN(C)CCCc1nc2ccccc2[nH]1)OC(=O)C1CC1` ?
stdout: 58.1
